Below, each entry is listed alongside its reported Ki.
# Assay System: TYK2 kinase domain (Homo sapiens)
# Construct: The activity of the isolated JAK1, JAK2 or TYK2 kinase domain was measured
# Sequence (P29597 897-1176 limits assumed): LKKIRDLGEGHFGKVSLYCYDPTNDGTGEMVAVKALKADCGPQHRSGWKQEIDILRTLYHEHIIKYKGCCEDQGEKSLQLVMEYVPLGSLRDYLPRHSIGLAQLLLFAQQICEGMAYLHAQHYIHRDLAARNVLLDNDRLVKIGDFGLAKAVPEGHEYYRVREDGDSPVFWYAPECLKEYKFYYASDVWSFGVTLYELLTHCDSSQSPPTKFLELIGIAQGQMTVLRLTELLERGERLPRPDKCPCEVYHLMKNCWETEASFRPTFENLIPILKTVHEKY
# Run Description: TYK2 inhibition assay (Example A, Caliper LabChip peptide phosphorylation)
# Run Parameters: isolated kinase domain, 1 nM TYK2, 25 uM ATP, Morrison tight binding model
# Method: The activity of the isolated JAK1, JAK2 or TYK2 kinase domain was measured by monitoring phosphorylation of a peptide derived from JAK3 ([…] fluorescently labeled on the N-terminus with 5-carboxyfluorescein using the Caliper LabChip technology (Caliper Life Sciences, Hopkinton, Mass.). […] Ki values were then determined using the Morrison tight binding model. […]

{"Given Smiles": "Fc1cccc(Cl)c1-c1nc2ccnc(Nc3cnccn3)c2[nH]1", "Assay System": "TYK2 kinase domain (Homo sapiens)", "Units Of Measure": "nM", "Ki": 3.1}
{"Given Smiles": "O=C(Nc1ncnc2nc(-c3c(Cl)cccc3Cl)[nH]c12)C1CC1", "Assay System": "TYK2 kinase domain (Homo sapiens)", "Units Of Measure": "nM", "Ki": 8.1}
{"Given Smiles": "N#Cc1cc(Cl)c(-c2nc3ncnc(Nc4ccc(N5CCOCC5)cn4)c3[nH]2)c(Cl)c1", "Assay System": "TYK2 kinase domain (Homo sapiens)", "Units Of Measure": "nM", "Ki": 1.4}
{"Given Smiles": "Cc1cc(Nc2ncc(F)c3[nH]c(-c4c(Cl)cccc4Cl)nc23)nc(C)n1", "Assay System": "TYK2 kinase domain (Homo sapiens)", "Units Of Measure": "nM", "Ki": 2.3}
{"Given Smiles": "O=C(Nc1ncnc2nc(-c3c(F)cccc3Cl)[nH]c12)C1CC1", "Assay System": "TYK2 kinase domain (Homo sapiens)", "Units Of Measure": "nM", "Ki": 27.8}
{"Given Smiles": "Clc1cccc(Cl)c1-c1nc2ccnc(Nc3cc(N4CCOCC4)ncn3)c2[nH]1", "Assay System": "TYK2 kinase domain (Homo sapiens)", "Units Of Measure": "nM", "Ki": 0.6}
{"Given Smiles": "O=C(Nc1ncc(Cl)c2[nH]c(-c3c(Cl)cccc3Cl)nc12)C1CC1", "Assay System": "TYK2 kinase domain (Homo sapiens)", "Units Of Measure": "nM", "Ki": 0.8}
{"Given Smiles": "Cc1nc(Nc2ncnc3nc(-c4c(Cl)cccc4Cl)[nH]c23)cc(N2CCN(CCO)CC2)n1", "Assay System": "TYK2 kinase domain (Homo sapiens)", "Units Of Measure": "nM", "Ki": 7.2}
{"Given Smiles": "Clc1cccc(Cl)c1-c1nc2c(Nc3ccccn3)nccc2[nH]1", "Assay System": "TYK2 kinase domain (Homo sapiens)", "Units Of Measure": "nM", "Ki": 1.7}
